Test system: RD-ES
Test: relative viability vs DMSO control (72 h) (fraction); higher = more viable cells
Details: 1.111 µM
Just a reminder that ties go to no: only relative viability strictly below 0.9 counts as yes.

[
  {
    "MOLECULE": "COc1cc(Nc2ncc3c(n2)-c2ccc(Cl)cc2C(c2c(F)cccc2OC)=NC3)ccc1C(=O)O",
    "DISCRETE_LABEL": "yes"
  }
]

Confirm or reject: relative viability of Cc1cc2c(F)c(Oc3ncnn4cc(OC[C@@H](C)OC(=O)[C@H](C)N)c(C)c34)ccc2[nH]1 [Brivanib_alaninate] lies strictly below 0.9
no

Confirm or reject: relative viability of O=C(c1ccc(F)c(F)c1Nc1ccc(I)cc1F)N1CC(O)([C@@H]2CCCCN2)C1 lies strictly below 0.9
no

Confirm or reject: relative viability of C[C@@H]1CN(C(=O)c2ccc(NC(=O)c3cc(O[C@H](C)c4c(Cl)ccc(F)c4Cl)c(N)nn3)cc2)C[C@H](C)N1 lies strictly below 0.9
yes

====

Test system: SW1353
Assay: relative viability vs DMSO control (72 h) (fraction); higher = more viable cells
Settings: 10 µM
Just a reminder that ties go to rule not met: only relative viability strictly below 0.9 counts as rule met.

Take a look at these entries with their results.
[
  {
    "MOLECULE": "Cc1c2oc3c(C)ccc(C(=O)N[C@@H]4C(=O)N[C@H](C(C)C)C(=O)N5CCC[C@H]5C(=O)N(C)CC(=O)N(C)[C@@H](C(C)C)C(=O)O[C@@H]4C)c3nc-2c(C(=O)N[C@@H]2C(=O)N[C@H](C(C)C)C(=O)N3CCC[C@H]3C(=O)N(C)CC(=O)N(C)[C@@H](C(C)C)C(=O)O[C@@H]2C)c(N)c1=O [Dactinomycin]",
    "DISCRETE_LABEL": "rule met"
  },
  {
    "MOLECULE": "Cc1cc2c(F)c(Oc3ncnn4cc(OC[C@@H](C)OC(=O)[C@H](C)N)c(C)c34)ccc2[nH]1 [Brivanib_alaninate]",
    "DISCRETE_LABEL": "rule not met"
  },
  {
    "MOLECULE": "CCOc1cc2ncc(C#N)c(Nc3ccc(OCc4ccccn4)c(Cl)c3)c2cc1NC(=O)/C=C/CN(C)C [Neratinib]",
    "DISCRETE_LABEL": "rule met"
  },
  {
    "MOLECULE": "CN(C)CCCOc1ccc(-c2ccc3ncc4c(c3c2)n(C2CCOCC2)c(=O)n4C)cn1 [AZD-0156]",
    "DISCRETE_LABEL": "rule met"
  },
  {
    "MOLECULE": "C=CC(=O)N1CCC(CNc2ncnc(N)c2-c2ccc(Oc3ccccc3)cc2)CC1 [Evobrutinib]",
    "DISCRETE_LABEL": "rule met"
  }
]

Attention now turns to another entry.
Confirm or reject: relative viability of CN(C)C/C=C/C(=O)Nc1cc2c(Nc3ccc(F)c(Cl)c3)ncnc2cc1O[C@H]1CCOC1 [Afatinib] lies strictly below 0.9
rule met

====

Test system: SW684
Test: relative viability vs DMSO control (72 h) (fraction); higher = more viable cells
Settings: 10 µM
Just a reminder that ties go to not fulfilled: only relative viability strictly below 0.9 counts as fulfilled.

Take a look at these entries with their results.
[
  {
    "RECORD_SMILES": "C[C@@H]1CN(C(=O)c2ccc(NC(=O)c3cc(O[C@H](C)c4c(Cl)ccc(F)c4Cl)c(N)nn3)cc2)C[C@H](C)N1",
    "TARGET_ENTITY": "SW684",
    "DISCRETE_LABEL": "fulfilled"
  },
  {
    "RECORD_SMILES": "COc1cc2ncnc(Nc3ccc(F)c(Cl)c3)c2cc1OCCCN1CCOCC1",
    "TARGET_ENTITY": "SW684",
    "DISCRETE_LABEL": "fulfilled"
  },
  {
    "RECORD_SMILES": "Cc1cc(F)c(C(=O)Nc2cccc(-c3nncn3C(C)C)n2)cc1-n1cnc(C2CC2)c1",
    "TARGET_ENTITY": "SW684",
    "DISCRETE_LABEL": "not fulfilled"
  }
]

Attention now turns to another entry.
Confirm or reject: relative viability of CC(=O)c1c(C)c2cnc(Nc3ccc(N4CCNCC4)cn3)nc2n(C2CCCC2)c1=O lies strictly below 0.9
fulfilled
